- Tested on: BSP gene
- experimentDescription: BSP mRNA level by real-time PCR in human-derived mesenchymal stem cells
- Type: cell-based
- conditionContext: compared to untreated control
- Procedure: It was cultured at 37° C. in humid air containing 5% CO2 and used for the experiment. […] Total RNA of human dental pulp cells and mesenchymal stem cells was isolated using a TRIzol reagent. cDNA was synthesized using 2 μg of total RNA, 1 μl of reverse transcriptase, and 0.5 μg of oligo (dT). […] An analysis of the results was evaluated using a comparative cycle threshold (CT) method, and primer base sequences are listed in Table 9. […]
measure: mRNA level of BSP gene, BSP gene expression, Average (fold)

[[record]]
macromoleculesequence = "KYAKKKRNYK [SEQ ID NO: 34]"
observedvalue = 2.136

[[record]]
macromoleculesequence = "KYAKRKRNYK [SEQ ID NO: 40]"
observedvalue = 2.102

[[record]]
macromoleculesequence = "KYKARRKNYK [SEQ ID NO: 6]"
observedvalue = 2.935

[[record]]
macromoleculesequence = "KYARKRKNYK [SEQ ID NO: 51]"
observedvalue = 1.899

[[record]]
macromoleculesequence = "KYARRKRSYK [SEQ ID NO: 64]"
observedvalue = 2.021

[[record]]
macromoleculesequence = "KYARRRRSYK [SEQ ID NO: 63]"
observedvalue = 2.237

[[record]]
macromoleculesequence = "KYRARRRSYK [SEQ ID NO: 31]"
observedvalue = 1.798

[[record]]
macromoleculesequence = "KYAKRKKNYK [SEQ ID NO: 36]"
observedvalue = 2.207

[[record]]
macromoleculesequence = "KYRARKKSYK [SEQ ID NO: 28]"
observedvalue = 2.084

[[record]]
macromoleculesequence = "KYAKRRRNYK [SEQ ID NO: 39]"
observedvalue = 2.293

[[record]]
macromoleculesequence = "KYRAKKKSYK [SEQ ID NO: 25]"
observedvalue = 2.152

[[record]]
macromoleculesequence = "KYRAKKKNYK [SEQ ID NO: 17]"
observedvalue = 2.392

[[record]]
macromoleculesequence = "KYRAKKRNYK [SEQ ID NO: 18]"
observedvalue = 2.316

[[record]]
macromoleculesequence = "KYRARKRSYK [SEQ ID NO: 32]"
observedvalue = 1.893

[[record]]
macromoleculesequence = "KYAKRKRSYK [SEQ ID NO: 48]"
observedvalue = 1.773

[[record]]
macromoleculesequence = "KYAKRRKNYK [SEQ ID NO: 38]"
observedvalue = 2.507

[[record]]
macromoleculesequence = "KYKAKKKNYK [SEQ ID NO: 1]"
observedvalue = 2.892

[[record]]
macromoleculesequence = "KYKAKRKNYK [SEQ ID NO: 3]"
observedvalue = 2.715

[[record]]
macromoleculesequence = "KYRARRKNYK [SEQ ID NO: 22]"
observedvalue = 1.893

[[record]]
macromoleculesequence = "KYRARKRNYK [SEQ ID NO: 24]"
observedvalue = 2.276

[[record]]
macromoleculesequence = "KYARRRRNYK [SEQ ID NO: 55]"
observedvalue = 1.773

[[record]]
macromoleculesequence = "KYRAKRKSYK [SEQ ID NO: 27]"
observedvalue = 2.195

[[record]]
macromoleculesequence = "KYARKRKSYK [SEQ ID NO: 59]"
observedvalue = 1.629

[[record]]
macromoleculesequence = "KYAKKRRSYK [SEQ ID NO: 45]"
observedvalue = 1.878

[[record]]
macromoleculesequence = "KYRAKRRNYK [SEQ ID NO: 21]"
observedvalue = 1.995

[[record]]
macromoleculesequence = "KYARRKKSYK [SEQ ID NO: 60]"
observedvalue = 1.991

[[record]]
macromoleculesequence = "KYAKKKKNYK [SEQ ID NO: 33]"
observedvalue = 2.092

[[record]]
macromoleculesequence = "KYAKKKKSYK [SEQ ID NO: 41]"
observedvalue = 1.762

[[record]]
macromoleculesequence = "KYARRRKSYK [SEQ ID NO: 62]"
observedvalue = 1.769

[[record]]
macromoleculesequence = "KYAKKRKSYK [SEQ ID NO: 43]"
observedvalue = 2.011


====

- Tested on: BSP gene
- experimentDescription: BSP mRNA level by real-time PCR in human-derived mesenchymal stem cells
- Type: cell-based
- conditionContext: compared to untreated control
Listed here: items and their measured mRNA level of BSP gene, BSP gene expression, Average.
measure: mRNA level of BSP gene, BSP gene expression, Average (fold)

[[record]]
macromoleculesequence = "KYKAKKRSYK [SEQ ID NO: 10]"
observedvalue = 1.998

[[record]]
macromoleculesequence = "KYKAKRRSYK [SEQ ID NO: 13]"
observedvalue = 2.637

[[record]]
macromoleculesequence = "KYRAKKRSYK [SEQ ID NO: 26]"
observedvalue = 2.081

[[record]]
macromoleculesequence = "KYKAKKKSYK [SEQ ID NO: 9]"
observedvalue = 2.084

[[record]]
macromoleculesequence = "KYKAKKRNYK [SEQ ID NO: 2]"
observedvalue = 2.713

[[record]]
macromoleculesequence = "KYARRRKNYK [SEQ ID NO: 54]"
observedvalue = 2.1

[[record]]
macromoleculesequence = "KYKARKRSYK [SEQ ID NO: 16]"
observedvalue = 2.307


====

- Tested on: BSP gene
- experimentDescription: BSP mRNA level by real-time PCR in human-derived mesenchymal stem cells
- Format: cell-based
- conditionContext: compared to untreated control
measure: mRNA level of BSP gene, BSP gene expression, Average (fold)

[[record]]
macromoleculesequence = "KYAKKRKNYK [SEQ ID NO: 35]"
endpointunit = "fold"
observedvalue = 2.372

[[record]]
macromoleculesequence = "KYRARKKNYK [SEQ ID NO: 20]"
endpointunit = "fold"
observedvalue = 2.91

[[record]]
macromoleculesequence = "KYAKKKRSYK [SEQ ID NO: 42]"
endpointunit = "fold"
observedvalue = 1.882

[[record]]
macromoleculesequence = "KYKARKKSYK [SEQ ID NO: 12]"
endpointunit = "fold"
observedvalue = 1.918

[[record]]
macromoleculesequence = "KYKARKRNYK [SEQ ID NO: 8]"
endpointunit = "fold"
observedvalue = 2.617

[[record]]
macromoleculesequence = "KYARKKKSYK [SEQ ID NO: 57]"
endpointunit = "fold"
observedvalue = 1.679

[[record]]
macromoleculesequence = "KYARKKKNYK [SEQ ID NO: 49]"
endpointunit = "fold"
observedvalue = 1.971

[[record]]
macromoleculesequence = "KYRARRKSYK [SEQ ID NO: 30]"
endpointunit = "fold"
observedvalue = 2.222

[[record]]
macromoleculesequence = "KYKARKKNYK [SEQ ID NO: 4]"
endpointunit = "fold"
observedvalue = 2.307

[[record]]
macromoleculesequence = "KYAKRKKSYK [SEQ ID NO: 44]"
endpointunit = "fold"
observedvalue = 1.699

[[record]]
macromoleculesequence = "KYARRKRNYK [SEQ ID NO: 56]"
endpointunit = "fold"
observedvalue = 2.016

[[record]]
macromoleculesequence = "KYAKRRKSYK [SEQ ID NO: 46]"
endpointunit = "fold"
observedvalue = 1.863

[[record]]
macromoleculesequence = "KYARKRRNYK [SEQ ID NO: 53]"
endpointunit = "fold"
observedvalue = 2.036

[[record]]
macromoleculesequence = "KYRARRRNYK [SEQ ID NO: 23]"
endpointunit = "fold"
observedvalue = 2.037


====

- Tested on: BSP gene
- experimentDescription: BSP mRNA level by real-time PCR in human-derived mesenchymal stem cells
- Type: cell-based
- conditionContext: compared to untreated control
Yes means recorded mRNA level of BSP gene, BSP gene expression, Average is 2 fold or above; No means it is below 2 fold.

[[record]]
macromoleculesequence = "KYKAKRRNYK [SEQ ID NO: 5]"
group = "Yes"

[[record]]
macromoleculesequence = "KYARKRRSYK [SEQ ID NO: 61]"
group = "No"

[[record]]
macromoleculesequence = "KYAKRRRSYK [SEQ ID NO: 47]"
group = "Yes"

[[record]]
macromoleculesequence = "KYRAKRKNYK [SEQ ID NO: 19]"
group = "Yes"

[[record]]
macromoleculesequence = "KYARKKRNYK [SEQ ID NO: 50]"
group = "No"


====

- Test system: BSP gene
- experimentDescription: BSP mRNA level by real-time PCR in human-derived mesenchymal stem cells
- Format: cell-based
- conditionContext: compared to untreated control
Listed here: items and their measured mRNA level of BSP gene, BSP gene expression, Average.
measure: mRNA level of BSP gene, BSP gene expression, Average (fold)

[[record]]
macromoleculesequence = "KYKAKRKSYK [SEQ ID NO: 11]"
testedsystem = "BSP gene"
observedvalue = 2.226

[[record]]
macromoleculesequence = "KYAKKRRNYK [SEQ ID NO: 37]"
testedsystem = "BSP gene"
observedvalue = 1.999

[[record]]
macromoleculesequence = "KYKARRRSYK [SEQ ID NO: 15]"
testedsystem = "BSP gene"
observedvalue = 2.119

[[record]]
macromoleculesequence = "KYARKKRSYK [SEQ ID NO: 58]"
testedsystem = "BSP gene"
observedvalue = 1.811

[[record]]
macromoleculesequence = "KYKARRKSYK [SEQ ID NO: 14]"
testedsystem = "BSP gene"
observedvalue = 1.729

[[record]]
macromoleculesequence = "KYKARRRNYK [SEQ ID NO: 7]"
testedsystem = "BSP gene"
observedvalue = 2.548

